- study target: T1, Human CXCR2 (human, UniProt P25025 1-360)
- T1 sequence: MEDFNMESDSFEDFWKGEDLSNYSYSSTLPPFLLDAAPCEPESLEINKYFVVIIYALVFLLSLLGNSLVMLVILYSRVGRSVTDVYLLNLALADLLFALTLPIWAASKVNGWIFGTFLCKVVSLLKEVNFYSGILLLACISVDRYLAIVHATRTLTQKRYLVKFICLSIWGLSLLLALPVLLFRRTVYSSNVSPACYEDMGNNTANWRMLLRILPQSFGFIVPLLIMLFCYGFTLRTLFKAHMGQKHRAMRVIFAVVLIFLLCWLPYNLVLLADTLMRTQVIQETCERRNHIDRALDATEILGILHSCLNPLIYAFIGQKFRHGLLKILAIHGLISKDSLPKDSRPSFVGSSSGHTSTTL
- test summary: cell-based or functional assay
attribute measured: [35S]GTPγS IC50 (GRO-α) (nM)
Answer format: numeric, nM implied, no suffix.

Exam item: Give me measured [35S]GTPγS IC50 (GRO-α), please, for this binder: CXCR20023 (bispecific antibody, Two different VHH joined by a GlySer linker; also called 163D2-35GS-163E3; not shown: C-terminal c-myc tag and His6 tag coded by pAX100) EVQLVESGGGLVQAGGSLRLSCAASGRTFSDYAMGWFRQAPGKEREFVAAITWNGGRVFYTASVKGRFTISRDNAKNTMYLQMNSLKPEDTAVYYCAADKDRRTDYLGHPVAYWGQGTQVTVSSGGGGSGGGGSGGGGSGGGGSGGGGSGGGGSGGGGSEVQLVESGGGLVQPGGSLRLSCVASGRIFSSNAMGWFRQAPGKEREFVAAITWRSGGSAYYADSAKGRFTISRDNAKNTVYLQMNSLKPEDTAVYYCAAGGSSWLSFPPDYWGQGTQVTVSS
Marked response: 26.6
